# System: MS2 coat protein
# experiment: apparent KD of MS2 coat protein; higher = weaker reporter binding
# experimental-setup: Eterna round: R107; input ligand: tryptophan 2.4 mM

# polymer-sequence, apparent KD of MS2 coat protein (µM)
records = [
    ("AUCGUACCUGGUGAUACCAGCAAUUGCUCGUGACAUGAGGAUCACCCAUGUGGCCAGUGAUGCCCUUGGCAGCAUGGUCGGUGCA [Same State - Theophylline B (Freestyle 24)]", 0.122),
    ("UGUACCUAGUCGGCCGCCACUCCAAAAGGAGAGGAUCACCCUCCUAAACGAGUCAAAGACUCGAGGAGGACCGGGACUAGGUACU [Palindromic MS2 #AlternativeMS2 #Palindrome #StaticStem]", 0.014),
    ("UGUAAUGGGAUCAACCCAUGAGAGUCUGAAGGAGCGAUCGUAAGAUCAGGUAGGUCGCGGGAGACAUGAGGAUCACCCAUGUAUA [#23 Exclusion - Arginine A]", 0.0397),
    ("AUGUCGUUGAAUAUAGCGGCUUGGAGUGAUACCAGCAUGAUCCAAUGCCCUUGGCAGCAUAACAUGAGGAUCACCCAUGUUCCAG [SSTheo A #26]", 0.0301),
    ("GUGACUUACGGGCGCCAUUUGUGAUAGGAAGGAGCGGCGAAAUAGCCAGGUAGGUCGCCUAUACAUGAGGAUCACCCAUGUCACC [Veveatonus]", 0.0726),
]
